Target: Polyketide synthase Pks13 (Mycobacterium tuberculosis (strain ATCC 25618 / H37Rv)) (UniProt I6X8D2)
Sequence (I6X8D2 whole entry): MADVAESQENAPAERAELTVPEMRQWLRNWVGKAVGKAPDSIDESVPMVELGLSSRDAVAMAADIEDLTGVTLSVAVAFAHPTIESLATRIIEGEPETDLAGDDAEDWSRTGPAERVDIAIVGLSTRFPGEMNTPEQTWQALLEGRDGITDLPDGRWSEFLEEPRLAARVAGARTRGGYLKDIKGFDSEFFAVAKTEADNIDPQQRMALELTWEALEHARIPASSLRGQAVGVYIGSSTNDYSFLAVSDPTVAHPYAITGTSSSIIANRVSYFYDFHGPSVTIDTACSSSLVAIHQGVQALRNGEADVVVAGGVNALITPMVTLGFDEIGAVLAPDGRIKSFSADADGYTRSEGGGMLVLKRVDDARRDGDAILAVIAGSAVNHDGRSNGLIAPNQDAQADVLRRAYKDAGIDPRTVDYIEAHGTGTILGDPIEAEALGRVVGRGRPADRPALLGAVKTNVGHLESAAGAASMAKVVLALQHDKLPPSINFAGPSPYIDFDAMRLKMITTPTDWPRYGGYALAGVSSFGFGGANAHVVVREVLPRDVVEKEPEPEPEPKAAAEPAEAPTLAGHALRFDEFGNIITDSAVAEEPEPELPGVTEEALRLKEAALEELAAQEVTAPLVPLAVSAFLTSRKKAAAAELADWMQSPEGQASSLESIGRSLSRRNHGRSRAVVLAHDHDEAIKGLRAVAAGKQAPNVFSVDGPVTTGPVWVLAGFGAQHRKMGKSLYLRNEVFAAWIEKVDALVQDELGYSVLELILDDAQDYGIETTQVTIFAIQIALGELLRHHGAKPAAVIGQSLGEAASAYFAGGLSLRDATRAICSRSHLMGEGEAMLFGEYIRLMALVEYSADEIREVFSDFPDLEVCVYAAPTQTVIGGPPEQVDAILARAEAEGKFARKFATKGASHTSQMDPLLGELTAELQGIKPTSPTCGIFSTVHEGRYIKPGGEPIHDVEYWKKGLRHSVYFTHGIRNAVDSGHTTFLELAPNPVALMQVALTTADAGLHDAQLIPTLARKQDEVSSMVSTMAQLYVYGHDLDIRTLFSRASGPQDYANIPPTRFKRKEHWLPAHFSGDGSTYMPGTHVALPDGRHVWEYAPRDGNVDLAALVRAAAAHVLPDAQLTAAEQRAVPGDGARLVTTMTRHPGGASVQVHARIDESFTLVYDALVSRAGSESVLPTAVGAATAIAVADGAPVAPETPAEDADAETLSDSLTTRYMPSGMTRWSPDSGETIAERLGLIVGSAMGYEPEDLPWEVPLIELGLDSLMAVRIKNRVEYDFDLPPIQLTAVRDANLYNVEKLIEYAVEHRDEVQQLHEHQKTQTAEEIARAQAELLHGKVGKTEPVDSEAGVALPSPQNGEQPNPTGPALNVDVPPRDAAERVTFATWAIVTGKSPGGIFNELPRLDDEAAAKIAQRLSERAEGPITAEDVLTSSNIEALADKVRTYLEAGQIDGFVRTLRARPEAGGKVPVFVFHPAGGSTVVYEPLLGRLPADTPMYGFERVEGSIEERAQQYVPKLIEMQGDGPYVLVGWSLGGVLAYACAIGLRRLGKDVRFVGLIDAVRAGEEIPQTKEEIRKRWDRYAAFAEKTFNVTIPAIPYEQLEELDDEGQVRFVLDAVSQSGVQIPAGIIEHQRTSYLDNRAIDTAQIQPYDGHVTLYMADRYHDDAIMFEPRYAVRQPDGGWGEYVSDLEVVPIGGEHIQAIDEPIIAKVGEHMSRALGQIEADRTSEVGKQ
Experiment: Mycobacterium tuberculosis Polyketide synthase 13 Thioesterase (PKS13)
Format: functional
Set-up: scale not given: in the data most compounds retested in dose-response had high values
Conditions: 30 µM
Out of some 67,000 compounds screened, about 300 (0.45%) showed an effect of 50% or more. The list comes from a sample in which strong results are over-represented; it also holds close analogues and randomly drawn compounds.
measurement name: Percent Effect (%)
Form entry: value (%) — number only.

Here is how some compounds turned out for Percent Effect.
Cc1noc([C@@]23CCO[C@@H]2CCN(Cc2scnc2C)C3)n1 :: -8.64
CCc1[nH]c2c(CNc3cc(C)nc(NC)n3)cc(C)cc2c1C :: 5.91
CCc1nc(C)c(C(=O)N2C[C@H]3CC[C@@H]2CN(S(=O)(=O)N(C)C)C3)s1 :: -18.5
CCc1nc(Cn2c(=O)c3c(C(F)(F)F)cc(C)nc3n2C)no1 :: 9.67
O=C(CC1CC1)N[C@@H]1CN(Cc2nccs2)C[C@@H]2CCCO[C@@H]21 :: -33.5
Cn1cncc1CN1C[C@@H]2OCCN(c3ncccn3)[C@@H]2C1 :: -16.4
Cc1ccc(-c2cc(C(=O)NCCCc3csc(N)n3)[nH]n2)o1 :: -10.8
Cc1ccc(-c2cc(C(=O)NCCCc3csc(N)n3)[nH]n2)s1 :: 57.8
CC(=O)N1CC[C@H]2OCC[C@@]2(C(=O)NCCc2ccccn2)C1 :: -18.1

Please examine the following record next.
Measured Percent Effect of Cc1cccc(CN2CCN(C(=O)N(C)C)[C@@H]3CS(=O)(=O)C[C@@H]32)n1 : -6.96

---

Target: Polyketide synthase Pks13 (Mycobacterium tuberculosis (strain ATCC 25618 / H37Rv))
Assay: Mycobacterium tuberculosis Polyketide synthase 13 Thioesterase (PKS13)
Type: functional
Design: scale not given: in the data most compounds retested in dose-response had high values
Conditions: 30 µM
The whole screen tested about 67,000 compounds, of which about 300 (0.45%) showed an effect of 50% or more. The sample as a whole holds a higher share of strong results than the screen did.
measurement name: Percent Effect (%)
Form entry: value (%) — number only.

Here is how some compounds turned out for Percent Effect.
Cc1noc([C@@H]2C[C@H]3OCC[C@H]3N(S(=O)(=O)c3ccccc3)C2)n1 :: -2.66
O=C(c1cscn1)N1CC[C@H]2[C@@H]1CCC(=O)N2c1ccccc1 :: -9.46
O=C1CCCN1Cc1ncn2c1CN(C(=O)NC1CCCCC1)CCC2 :: 29
O=S(=O)(Nc1cnc(N2CCOCC2)nc1)c1ccc(C(F)(F)F)cc1 :: -20.2

Please examine the following record next.
Measured Percent Effect of CC(=O)N1[C@@H](C(=O)NCC2CC2)C[C@@H]2CN(Cc3ccco3)C[C@@H]21 : -5.84

---

Biological target: Polyketide synthase Pks13 (Mycobacterium tuberculosis (strain ATCC 25618 / H37Rv)) (UniProt I6X8D2)
Assay: Mycobacterium tuberculosis Polyketide synthase 13 Thioesterase (PKS13)
Format: functional
Set-up: scale not given: in the data most compounds retested in dose-response had high values
Details: 30 µM
The whole screen tested about 67,000 compounds, of which about 300 (0.45%) showed an effect of 50% or more. For the sample, strong results were picked, then their nearest neighbours and some compounds at random.
measurement name: Percent Effect (%)
Form entry: value (%) — number only.

Cn1cc(CN2C[C@H]3CCN(C(=O)c4cscn4)C[C@H]3C2)cn1 :: -3.8

Measured Percent Effect of CN(C)C[C@H]1C[C@@H](CO)CN(C(=O)c2cc(=O)[nH]c3cc(F)ccc23)C1 : -20

Measured Percent Effect of O=C(Cc1cnccn1)N1C[C@H]2CC[C@@H]1CN(Cc1cscn1)C2 : -24.8

Measured Percent Effect of Cc1cnn(CC2CCCN2Cc2cc(=O)n3cccc(C)c3n2)c1 (stereo not given) : -5.2

Measured Percent Effect of Cc1cc(C(=O)N2C[C@@H]3COC[C@]3(c3nnc(C4CC4)o3)C2)on1 : -7.03

---

Target: Polyketide synthase Pks13 (Mycobacterium tuberculosis (strain ATCC 25618 / H37Rv)) (UniProt I6X8D2)
Test: Mycobacterium tuberculosis Polyketide synthase 13 Thioesterase (PKS13)
Assay type: functional
Set-up: scale not given: in the data most compounds retested in dose-response had high values
Conditions: 30 µM
Hit rate of the full screen: of about 67,000 compounds, about 300 (0.45%) showed an effect of 50% or more. Only a selection was taken, and strong results are over-represented in it overall.
Mark 1 only for Percent Effect values smaller than -10%; exact matches and larger values are -1.

Recorded results for 4 compounds are shown here.
CCC[C@H]1CN(S(C)(=O)=O)C[C@@H]1NC(=O)COC(C)C :: 1
O=C(O)c1c(-c2cncnc2)ncc2c1CCN(CC1CCOC1)C2 (stereo not given) :: -1
Cn1cc(-c2ncc3c(c2C(=O)O)CCN(CC2CCOC2)C3)cn1 (stereo not given) :: -1
CNC(=O)[C@H]1C[C@H]2OCC[C@H]2N(Cc2cccc3ccccc23)C1 :: 1

Request: Quick check: does CCC[C@H]1CN(S(C)(=O)=O)C[C@@H]1NC(=O)Cc1ccc(OC)cc1 have Percent Effect under -10%?
Response: 1

Request: Quick check: does CC(NC(=O)COCC(F)(F)F)c1nnc2n1CCCCC2 (stereo not given) have Percent Effect under -10%?
Response: 1

Request: Quick check: does COc1ccc(C2(C(=O)N3CC[C@@]4(O)CCNC[C@H]4C3)CCCC2)cc1 have Percent Effect under -10%?
Response: -1

Request: Quick check: does COCC(=O)N1CCc2cccc(S(=O)(=O)N3CCOCC3)c2C1 have Percent Effect under -10%?
Response: -1

Request: Quick check: does Cc1nccc([C@@H]2C[C@@H]3CCN(Cc4cccs4)C[C@H]3O2)n1 have Percent Effect under -10%?
Response: -1

Request: Quick check: does O=C1O[C@@H]2CN(c3ccccn3)C[C@@H]2N1CCCc1ccc(F)cc1 have Percent Effect under -10%?
Response: 1

---

# Percent Effect listing for each entry below
Target: Polyketide synthase Pks13 (Mycobacterium tuberculosis (strain ATCC 25618 / H37Rv)) (UniProt I6X8D2)
Test: Mycobacterium tuberculosis Polyketide synthase 13 Thioesterase (PKS13)
Format: functional
Set-up: scale not given: in the data most compounds retested in dose-response had high values
Details: 30 µM
Out of some 67,000 compounds screened, about 300 (0.45%) showed an effect of 50% or more. Only a selection was taken, and strong results are over-represented in it overall.
Form entry: value (%) — number only.

Here is how some molecules turned out for Percent Effect.
O=C(N[C@@H]1CN(c2ncccn2)C[C@@H]2CCCO[C@@H]21)c1cnccn1 :: -18
O=C(O)Cn1nc(C2CC2)c2c(-c3cccs3)ccnc21 :: 46.3
Cc1cc(-c2cnc(NC3CCCC3)nc2-c2ccco2)on1 :: 27.1

Measured Percent Effect of O=c1[nH]c(NC2CCCC2)nc2nccc(-c3cccs3)c12 : 72.5

Measured Percent Effect of CN(C)C(=O)[C@H]1C[C@@H]2CCN(C3CCOCC3)C[C@H]2O1 : -11.1

Measured Percent Effect of CN(C)C[C@]12COC[C@H]1CN(Cc1ccc3ccccc3n1)C2 : -18.2

---

# Percent Effect listing for each entry below
Molecular target: Polyketide synthase Pks13 (Mycobacterium tuberculosis (strain ATCC 25618 / H37Rv))
Assay: Mycobacterium tuberculosis Polyketide synthase 13 Thioesterase (PKS13)
Assay type: functional
Design: scale not given: in the data most compounds retested in dose-response had high values
Settings: 30 µM
The campaign covered roughly 67,000 compounds. About 300 (0.45%) showed an effect of 50% or more. The entries come from a sample that favours strong results as a whole.
Form entry: value (%) — number only.

Here is how some compounds turned out for Percent Effect.
O=C(Nc1cccnc1)[C@H]1COC[C@H]2CN(C3CCCC3)C[C@H]21 :: -10.2
Cc1cccc(N2CC[C@@H]3CN(C(=O)c4ccco4)CCO[C@@H]3C2)n1 :: -34.3
Cc1ncsc1CN1C[C@H](C(=O)NCC2CC2)[C@@H]2CCO[C@@H]2C1 :: -19.8
O=C(c1ccco1)N1CCO[C@@H]2CN(c3ccccc3)CC[C@@H]2C1 :: -28.4
COC(=O)NCC(=O)NCC(C)(C)c1cccc(C(F)(F)F)c1 :: -4.12
Cc1ccc(S(=O)(=O)n2ccn(C(=O)CC(C)C)c2=O)cc1 :: 10.8
COc1ccc2[nH]cc(-c3ccnc(N4CCC(C)CC4)n3)c2c1 :: 71.9
O=C(c1cnccn1)N1C[C@@H]2CC[C@H](C1)N(S(=O)(=O)c1cccnc1)C2 :: 56.1

The observed Percent Effect for CCc1cnc(N2CC[C@H]3[C@@H]2CCC(=O)N3c2ccccc2)nc1 when tested with Polyketide synthase Pks13 (Mycobacterium tuberculosis (strain ATCC 25618 / H37Rv)) stands at -13.3

The observed Percent Effect for Cc1cccc(OC2CCN(c3ncc(C#N)cc3Cl)CC2)n1 when tested with Polyketide synthase Pks13 (Mycobacterium tuberculosis (strain ATCC 25618 / H37Rv)) stands at 26.2

The observed Percent Effect for O=C(c1ccccc1)N1C[C@@H]2CC[C@H](C1)N(S(=O)(=O)c1cccnc1)C2 when tested with Polyketide synthase Pks13 (Mycobacterium tuberculosis (strain ATCC 25618 / H37Rv)) stands at -34.5

The observed Percent Effect for O=C1CC[C@H]2[C@H](CCN2c2ccccn2)N1CC1CCOCC1 when tested with Polyketide synthase Pks13 (Mycobacterium tuberculosis (strain ATCC 25618 / H37Rv)) stands at -8.5

The observed Percent Effect for CN1CCCN(c2nccc(-c3c[nH]c4ccc(Br)cc34)n2)CC1 when tested with Polyketide synthase Pks13 (Mycobacterium tuberculosis (strain ATCC 25618 / H37Rv)) stands at -2.62

The observed Percent Effect for Cc1cc(C(=O)NCCN2CCC(C)CC2)nn1C(C)(C)C when tested with Polyketide synthase Pks13 (Mycobacterium tuberculosis (strain ATCC 25618 / H37Rv)) stands at -8.5

The observed Percent Effect for Cn1c(NCCC(=O)N2CCCC2)c(C#N)c(=O)n(C)c1=O when tested with Polyketide synthase Pks13 (Mycobacterium tuberculosis (strain ATCC 25618 / H37Rv)) stands at 1.71

The observed Percent Effect for CNC(=O)[C@H]1C[C@@H]2CN(C(=O)c3cncc(C)c3)C[C@@H]2N1C when tested with Polyketide synthase Pks13 (Mycobacterium tuberculosis (strain ATCC 25618 / H37Rv)) stands at 19.6
